Cited source: ChEMBL document CHEMBL5335796

Test: Drug metabolism in human intestine microsomes assessed as psilocin formation at 2.5 uM after 120 mins by LC-MS analysis
Format: ADME, Microsome
Conditions: 2 h
Overview of recorded Drug metabolism for various compounds

{"columns": ["compound", "Drug metabolism"],
 "data": [
  ["CC(C)OC(=O)OCOc1cccc2c1c(CCN(C)C)cn2COC(=O)OC(C)C", "0 µM"]
]}

I have this compound here, `COc1ccc(C(=O)Oc2cccc3[nH]cc(CCN(C)C)c23)cc1` , and I need its recorded Drug metabolism. 0.041 µM

Another: `CN(C)CCc1c[nH]c2cccc(OP(=O)(O)O)c12` 0.172 µM

Another: `CN(C)CCc1c[nH]c2cccc(O[Si](c3ccccc3)(c3ccccc3)C(C)(C)C)c12` 0 µM

Another: `CN(C)CCc1c[nH]c2cccc(O[Si](C)(C)C(C)(C)C)c12` 0 µM

Another: `CN(C)CCc1c[nH]c2cccc(OC(=O)SCc3ccccc3)c12` 0.156 µM

Another: `CC(C)[Si](C(C)C)(C(C)C)n1cc(CCN(C)C)c2c(OC(=O)OCC3CC3)cccc21` 0.096 µM

Another: `CN(C)CCc1c[nH]c2cccc(OC(=O)CC3CC3)c12` 0.927 µM

Another: `CN(C)CCc1c[nH]c2cccc(OC(=O)OCC(Cl)(Cl)Cl)c12` 0 µM

Another: `CCCC(=O)OCOc1cccc2[nH]cc(CCN(C)C)c12` 0.043 µM

###

Assay: Metabolic stability in human intestine microsomes assessed as half life at 2.5 uM measured upto 120 mins in presence of NADPH by LC-MS analysis
Format: ADME, Microsome
Conditions: 2 h
experimental_endpoint: t1/2
Provide the measurement as a number trailed by its unit.

I have this compound here, `CN(C)CCc1c[nH]c2cccc(OC(=O)CC3CC3)c12` , and I need its recorded t1/2. 1.03 h

Another: `CN(C)CCc1c[nH]c2cccc(OC(=O)OCc3ccccc3)c12` 3.52 h

Another: `CN(C)CCc1c[nH]c2cccc(OC(=O)c3cccc4c3OCCO4)c12` 1.88 h

Another: `CC(C)[Si](C(C)C)(C(C)C)n1cc(CCN(C)C)c2c(OC(=O)c3ccc(Br)cc3)cccc21` 0.183 h

Another: `CCC(=O)OCOc1cccc2c1c(CCN(C)C)cn2C(=O)CC` 0.367 h

###

Overview of recorded Drug metabolism for various compounds
Test: Drug metabolism in human intestine S9 fraction assessed as psilocin formation at 2.5 uM after 120 mins by LC-MS analysis
Type: ADME, subcellular
Conditions: s9, 2 h
Write the answer as a number in µM, unit excluded.

{"columns": ["compound", "Drug metabolism, µM"],
 "data": [
  ["CN(C)CCc1cn(C(=O)OCc2ccccc2)c2cccc(OC(=O)OCc3ccccc3)c12", 0]
]}

I have this compound here, `CN(C)CCc1c[nH]c2cccc(OC(=O)c3cccc4c3OCCO4)c12` , and I need its recorded Drug metabolism. 0

Another: `CCC(=O)OCOc1cccc2c1c(CCN(C)C)cn2C(=O)CC` 0

Another: `CN(C)CCc1c[nH]c2cccc(OC(=O)c3cccc(C(=O)Oc4cccc5[nH]cc(CCN(C)C)c45)c3)c12` 0

Another: `CN(C)CCc1c[nH]c2cccc(OC(=O)OCc3ccccc3)c12` 0.044

Another: `CN(C)CCc1c[nH]c2cccc(O[Si](C)(C)C(C)(C)C)c12` 0

Another: `CC(C)[Si](C(C)C)(C(C)C)n1cc(CCN(C)C)c2c(OCc3ccc(F)cc3)cccc21` 0

Another: `CN(C)CCc1c[nH]c2cccc(OC(=O)c3c(F)c(F)c(F)c(F)c3F)c12` 0.533

Another: `CC(C)[Si](C(C)C)(C(C)C)n1cc(CCN(C)C)c2c(OC(=O)c3ccc(Br)cc3)cccc21` 0.195

Another: `CC(C)[Si](Oc1cccc2[nH]cc(CCN(C)C)c12)(C(C)C)C(C)C` 0

###

Overview of recorded Drug metabolism for various molecules
Assay: Drug metabolism in human serum assessed as psilocin formation at 2.5 uM after 120 mins by LC-MS analysis
Format: ADME, cell-free
Settings: 2 h
Write the answer as a number in µM, unit excluded.

{"columns": ["compound", "Drug metabolism / µM"],
 "data": [
  ["CC(C)[Si](C(C)C)(C(C)C)n1cc(CCN(C)C)c2c(OC(=O)c3ccc(Br)cc3)cccc21", 0],
  ["CCC(=O)Oc1cccc2c1c(CCN(C)C)cn2[Si](C(C)C)(C(C)C)C(C)C", 0]
]}

Could you now look at the following molecule, please?
I have this molecule here, `CN(C)CCc1c[nH]c2cccc(OC(=O)c3cccc4c3OCCO4)c12` , and I need its recorded Drug metabolism. 0

###

Test: Metabolic stability in human liver S9 fraction assessed as half life at 2.5 uM measured upto 120 mins in presence of NADPH by LC-MS analysis
Assay type: ADME, subcellular
Settings: s9, 2 h, 2.5 µM
Binary call on t1/2: yes from 20 min upward, no beneath that.

{"columns": ["compound", "class_name"],
 "data": [
  ["COc1ccc(C(=O)Oc2cccc3[nH]cc(CCN(C)C)c23)cc1", "yes"],
  ["CN(C)CCc1cn(C(=O)OCc2ccccc2)c2cccc(OC(=O)OCc3ccccc3)c12", "yes"],
  ["CCCCC(=O)OCOc1cccc2[nH]cc(CCN(C)C)c12", "no"],
  ["COCCOCCOCC(=O)Oc1cccc2[nH]cc(CCN(C)C)c12", "no"],
  ["CN(C)CCc1c[nH]c2cccc(OC(=O)OCC3CC3)c12", "no"]
]}

--- query ---
Assess whether reported t1/2 for `COC(=O)c1cccc(C(=O)Oc2cccc3[nH]cc(CCN(C)C)c23)c1` sits at 20 min or higher. yes

###

Overview of recorded t1/2 for various compounds
Assay: Metabolic stability in human liver microsomes assessed as half life at 2.5 uM measured upto 120 mins in presence of NADPH by LC-MS analysis
Assay type: ADME, Microsome
Settings: microsomes, 2 h, 2.5 µM
Write the answer as a number in min, unit excluded.

I have this compound here, `COC(=O)c1cccc(C(=O)Oc2cccc3[nH]cc(CCN(C)C)c23)c1` , and I need its recorded t1/2. 22

Another: `CCC(=O)OCOc1cccc2c1c(CCN(C)C)cn2C(=O)CC` 13

Another: `CN(C)CCc1c[nH]c2cccc(OC(=O)CC3CC3)c12` 1

Another: `CC(C)[Si](C(C)C)(C(C)C)n1cc(CCN(C)C)c2c(OC(=O)OCC3CC3)cccc21` 31

Another: `CN(C)CCc1c[nH]c2cccc(OP(=O)(Oc3ccccc3)Oc3ccccc3)c12` 43

###

Assay: Metabolic stability in human intestine microsomes assessed as half life at 2.5 uM measured upto 120 mins in presence of NADPH by LC-MS analysis
Format: ADME, Microsome
Settings: 2 h
Label MET when t1/2 is strictly below 100 min; at or above that, label NOT MET.

Field: example entries. Status: answers known.
{"columns": ["compound", "class_name"],
 "data": [
  ["CN(C)CCc1c[nH]c2cccc(OC(=O)c3c(F)c(F)c(F)c(F)c3F)c12", "MET"],
  ["CC(C)[Si](C(C)C)(C(C)C)n1cc(CCN(C)C)c2c(OC(=O)OCC3CC3)cccc21", "MET"],
  ["CN(C)CCc1cn(C(=O)OCc2ccccc2)c2cccc(OC(=O)OCc3ccccc3)c12", "MET"]
]}

Is t1/2 strictly under 100 min for the entry `COc1ccc(C(=O)Oc2cccc3[nH]cc(CCN(C)C)c23)cc1` ? NOT MET

Another: `CCCCC(=O)OCOc1cccc2[nH]cc(CCN(C)C)c12` NOT MET

Another: `CN(C)CCc1c[nH]c2cccc(OC(=O)SCc3ccccc3)c12` MET

Another: `CC(C)[Si](Oc1cccc2[nH]cc(CCN(C)C)c12)(C(C)C)C(C)C` MET

Another: `CN(C)CCc1c[nH]c2cccc(OC(=O)OCC(Cl)(Cl)Cl)c12` NOT MET

Another: CCOC(=O)[C@@H](C)NP(=O)(Oc1ccccc1)Oc1cccc2c1c(CCN(C)C)cn2[Si](C(C)C)(C(C)C)C(C)C (stereo not given in full) MET

Another: `CN(C)CCc1c[nH]c2cccc(OC(=O)c3cccc(C(=O)Oc4cccc5[nH]cc(CCN(C)C)c45)c3)c12` NOT MET

###

Overview of recorded log10 t1/2 for various compounds
Assay: Metabolic stability in human intestine microsomes assessed as half life at 2.5 uM measured upto 120 mins in presence of NADPH by LC-MS analysis
Assay type: ADME, Microsome
Conditions: 2 h
For clarity, the numbers are log10 values of t1/2 expressed in h.

# example entries with known answers
{"columns": ["compound", "log10 t1/2"],
 "data": [
  ["CN(C)CCc1c[nH]c2cccc(OC(=O)c3ccc(Br)cc3)c12", 0.07],
  ["CC(C)[Si](C(C)C)(C(C)C)n1cc(CCN(C)C)c2c(OC(=O)Sc3ccccc3)cccc21", -0.66],
  ["CN(C)CCc1c[nH]c2cccc(OC(=O)OCC3CC3)c12", 0.66],
  ["CN(C)CCc1c[nH]c2cccc(OP(=O)(Oc3ccccc3)Oc3ccccc3)c12", -0.33],
  ["COCCOCCOCC(=O)Oc1cccc2[nH]cc(CCN(C)C)c12", 0.00],
  ["CC(C)[Si](C(C)C)(C(C)C)n1cc(CCN(C)C)c2c(OCc3ccc(F)cc3)cccc21", -0.08],
  ["CCCC(=O)OCOc1cccc2[nH]cc(CCN(C)C)c12", 0.09],
  ["CC(C)OC(=O)OCOc1cccc2c1c(CCN(C)C)cn2COC(=O)OC(C)C", 1.17]
]}

I have this compound here, CN(C)CCc1c[nH]c2cccc(OP(=O)(O)O)c12 [PSILOCYBIN] , and I need its recorded log10 t1/2. 0.51

Another: `CCC(=O)Oc1cccc2c1c(CCN(C)C)cn2[Si](C(C)C)(C(C)C)C(C)C` -1.48
